Molecular target: Renin (Macaca fascicularis) (UniProt Q6DLS0)
Sequence (Q6DLS0 whole entry): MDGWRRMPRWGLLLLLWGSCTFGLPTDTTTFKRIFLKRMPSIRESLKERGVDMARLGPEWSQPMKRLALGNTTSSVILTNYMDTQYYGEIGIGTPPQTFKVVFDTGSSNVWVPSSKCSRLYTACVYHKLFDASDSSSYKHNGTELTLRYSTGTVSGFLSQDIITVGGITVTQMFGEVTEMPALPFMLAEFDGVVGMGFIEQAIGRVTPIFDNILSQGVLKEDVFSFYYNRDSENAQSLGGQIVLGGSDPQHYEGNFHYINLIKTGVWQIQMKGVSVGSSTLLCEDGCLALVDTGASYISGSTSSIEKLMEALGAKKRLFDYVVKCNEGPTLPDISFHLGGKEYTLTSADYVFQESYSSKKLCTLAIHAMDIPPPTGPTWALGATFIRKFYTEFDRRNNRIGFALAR
Test: Ratio of compound IC50 to aliskiren IC50 for renin in cynomolgus monkey plasma
// boundary case: Ratio IC50 equal to 2 maps to label 0; strictly smaller maps to label 1

# count of solved cases: 5
* CC(C)[C@H](C[C@H](O)[C@@H](N)CN1CC(=O)N(c2ccccc2Cl)CC1(C)C)C(=O)NCC(C)(C)O.O=C(O)/C=C/C(=O)O | label 1
* Cc1cccc(NC(=O)[C@@H](C[C@H](O)[C@@H](N)CN2CC(=O)N(c3ccccc3Cl)CC2(C)C)C(C)C)n1.O=C(O)/C=C/C(=O)O | label 0
* Cc1ccc(F)cc1N1CC(C)(C)N(C[C@H](N)[C@@H](O)C[C@H](C(=O)Nc2cccnc2)C(C)C)CC1=O.O=C(O)/C=C/C(=O)O | label 0
* CC[C@H](C[C@H](O)[C@@H](N)CN1CC(=O)N(c2ccccc2Cl)CC1(C)C)C(=O)NC1C2CC3CC1CC(C(N)=O)(C3)C2.O=C(O)/C=C/C(=O)O (some centres undefined) | label 1
* CC[C@H](C[C@H](O)[C@@H](N)CN1CC(=O)N(c2ccccc2Cl)CC1(C)C)C(=O)Nc1ccc(F)cn1.O=C(O)/C=C/C(=O)O | label 1

# evaluate next
Does CC(C)CNC(=O)C(C)(C)C[C@H](O)[C@@H](N)CN1CC(=O)N(c2cc(F)ccc2Cl)CC1(C)C.O=C(O)/C=C/C(=O)O have Ratio IC50 strictly under 2?
label 0
